Ref: ChEMBL document CHEMBL1201862

Here the recorded IC50 is given for each entry.
- target.under.test: Fatty acid synthase (Homo sapiens)
- Sequence (P49327 whole entry): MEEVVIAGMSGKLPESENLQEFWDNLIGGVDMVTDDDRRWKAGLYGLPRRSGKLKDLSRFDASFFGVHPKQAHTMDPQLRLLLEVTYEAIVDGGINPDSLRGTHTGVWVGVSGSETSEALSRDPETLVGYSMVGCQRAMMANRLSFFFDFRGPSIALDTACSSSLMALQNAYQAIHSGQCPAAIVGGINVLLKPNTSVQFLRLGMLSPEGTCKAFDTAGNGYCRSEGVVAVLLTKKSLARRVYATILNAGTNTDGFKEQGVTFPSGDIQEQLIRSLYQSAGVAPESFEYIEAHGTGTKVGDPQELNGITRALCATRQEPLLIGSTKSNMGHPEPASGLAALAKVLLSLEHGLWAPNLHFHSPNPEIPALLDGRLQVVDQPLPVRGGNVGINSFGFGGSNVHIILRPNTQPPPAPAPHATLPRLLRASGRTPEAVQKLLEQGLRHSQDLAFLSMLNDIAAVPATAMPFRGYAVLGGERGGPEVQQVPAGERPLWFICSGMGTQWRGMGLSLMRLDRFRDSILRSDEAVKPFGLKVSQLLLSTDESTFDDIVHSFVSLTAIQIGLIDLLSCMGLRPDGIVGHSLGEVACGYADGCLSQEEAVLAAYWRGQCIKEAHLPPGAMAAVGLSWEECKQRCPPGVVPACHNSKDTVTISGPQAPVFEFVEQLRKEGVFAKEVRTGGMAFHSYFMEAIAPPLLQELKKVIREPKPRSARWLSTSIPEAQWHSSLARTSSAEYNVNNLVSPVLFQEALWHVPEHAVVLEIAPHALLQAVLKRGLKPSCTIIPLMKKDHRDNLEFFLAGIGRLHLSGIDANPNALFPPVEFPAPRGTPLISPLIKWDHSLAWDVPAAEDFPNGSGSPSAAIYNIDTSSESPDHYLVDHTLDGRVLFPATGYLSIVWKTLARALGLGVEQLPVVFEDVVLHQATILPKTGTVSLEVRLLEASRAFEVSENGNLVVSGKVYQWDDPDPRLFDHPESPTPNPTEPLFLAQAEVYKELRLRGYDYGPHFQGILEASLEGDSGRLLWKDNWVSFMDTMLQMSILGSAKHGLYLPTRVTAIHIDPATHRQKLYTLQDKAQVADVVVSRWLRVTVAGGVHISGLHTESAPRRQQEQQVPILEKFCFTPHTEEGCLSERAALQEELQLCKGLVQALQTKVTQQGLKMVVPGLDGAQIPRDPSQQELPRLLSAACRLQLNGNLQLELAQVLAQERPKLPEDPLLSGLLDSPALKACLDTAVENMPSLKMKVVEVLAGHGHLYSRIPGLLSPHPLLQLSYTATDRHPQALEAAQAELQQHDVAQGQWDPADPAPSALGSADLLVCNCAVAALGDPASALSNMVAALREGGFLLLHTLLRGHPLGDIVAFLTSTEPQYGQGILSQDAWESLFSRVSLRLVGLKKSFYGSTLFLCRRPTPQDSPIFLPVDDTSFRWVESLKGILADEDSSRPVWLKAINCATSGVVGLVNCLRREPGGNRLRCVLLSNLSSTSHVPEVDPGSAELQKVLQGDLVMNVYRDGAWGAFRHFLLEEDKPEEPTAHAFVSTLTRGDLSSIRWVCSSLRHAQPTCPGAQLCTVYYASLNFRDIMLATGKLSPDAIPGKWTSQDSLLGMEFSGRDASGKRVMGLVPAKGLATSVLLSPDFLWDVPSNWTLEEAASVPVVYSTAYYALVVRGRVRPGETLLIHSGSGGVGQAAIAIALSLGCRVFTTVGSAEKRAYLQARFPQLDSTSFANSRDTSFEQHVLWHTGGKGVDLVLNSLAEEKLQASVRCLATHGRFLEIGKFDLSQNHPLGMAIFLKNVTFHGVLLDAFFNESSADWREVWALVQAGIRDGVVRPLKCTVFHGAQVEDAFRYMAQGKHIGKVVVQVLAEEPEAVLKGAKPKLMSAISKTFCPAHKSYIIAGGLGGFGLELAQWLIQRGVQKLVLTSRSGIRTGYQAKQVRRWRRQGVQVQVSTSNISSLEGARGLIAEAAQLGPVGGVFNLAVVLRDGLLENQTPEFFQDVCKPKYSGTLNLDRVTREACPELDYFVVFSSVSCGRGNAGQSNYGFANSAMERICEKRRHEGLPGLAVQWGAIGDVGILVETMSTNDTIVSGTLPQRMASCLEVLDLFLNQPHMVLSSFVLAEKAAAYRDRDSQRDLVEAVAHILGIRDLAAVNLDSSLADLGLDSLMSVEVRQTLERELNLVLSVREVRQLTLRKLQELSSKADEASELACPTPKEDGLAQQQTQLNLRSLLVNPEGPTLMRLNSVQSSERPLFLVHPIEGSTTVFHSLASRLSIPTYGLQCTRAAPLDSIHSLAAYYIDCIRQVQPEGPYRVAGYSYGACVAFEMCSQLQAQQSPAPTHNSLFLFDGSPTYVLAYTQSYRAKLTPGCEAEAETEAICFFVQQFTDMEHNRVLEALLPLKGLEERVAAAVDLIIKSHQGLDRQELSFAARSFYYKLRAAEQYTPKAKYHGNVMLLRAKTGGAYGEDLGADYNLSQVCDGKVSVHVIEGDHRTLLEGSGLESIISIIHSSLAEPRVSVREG
- experimental.details: inhibition of human FAS-TE enzyme activity – biochemical, kinetic fluorescence intensity, dose response (AID 624326);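 note: rate of fluorescence rise from hydrolysis of a fluorogenic O-methyl fluorescein ester substrate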
- Assay type: functional
The source made the active and inactive calls.

In [3]: df
Out[3]:
                                   molecule                   target_under_test   measured_value
0  Cc1noc(C)c1NC(=O)Nc1cccc2c1O[C@H](CN(C)C(=O)NC1CCCCC1)[C@@H](C)CN([C@H](C)CO)C2=O  Fatty acid synthase (Homo sapiens)  4.3 µM (active)

In: For the molecule "O=C(Nn1c(-c2ccc(Br)cc2)nc2ccccc2c1=O)c1ccc([N+](=O)[O-])cc1" , what IC50 is on record?
Out: 7.74 µM (active)

In: For the molecule CC1CCc2c(C(=O)Oc3cccc(-n4cnnn4)c3)csc2C1 (stereo not given) , what IC50 is on record?
Out: 1.36 µM (active)

In: For the molecule "COC(=O)N1C(=O)[C@](c2ccc(OC)cc2)(C(C)C)N1C(=O)OC" , what IC50 is on record?
Out: 2.06 µM (active)

----------
- target.under.test: Kappa-type opioid receptor (Homo sapiens)
- Assay type: functional
property: EC50

In: For the compound "O=C(c1ccccn1)N(Cc1ccco1)C1(C(=O)NC2CCCCC2)CCCCC1" , what EC50 is on record?
Out: < 0.5 µM

----------
- target.under.test: Caspase-3 (Homo sapiens);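 note: Dose-response selectivity test against caspase-3 for candidate inhibitors of sentrin-specific proteases (SENPs)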
- Type: functional
Activity calls are given as the source filed them.
property: IC50

                              sample_smiles         target_under_test    measured_value
0  CC(/C=C1\SC(=S)N(NS(=O)(=O)c2ccc(C)cc2)C1=O)=C\c1ccccc1  Caspase-3 (Homo sapiens)  12.9 µM (active)
1   Cc1ccc(NC2=C(NCCO)C(=O)c3ccccc3C2=O)cc1  Caspase-3 (Homo sapiens)  11.4 µM (active)
2       COc1cccc(C(=O)OCC(=O)c2ccc(Br)s2)c1  Caspase-3 (Homo sapiens)  26.8 µM (active)
3     Nc1[nH]n(-c2ccccc2)c(=O)c1N=Nc1ccccc1  Caspase-3 (Homo sapiens)  20.2 µM (active)
4  N=C1/C(=C/c2cccs2)C(=O)N=C2SN=C(SCc3ccccc3)N12  Caspase-3 (Homo sapiens)  50.3 µM (active)

Turning to the following molecule.
In: For the molecule "c1ccc2nc(-c3ccc(-n4ccnc4)cc3)ccc2c1" , what IC50 is on record?
Out: 8.83 µM (active)

----------
- Tested on: H9c2;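 note: cell death induced by hydrogen peroxide oxidative stress; compound pretreatment for 60 min then peroxide exposure for 2 h; potency is for protecting the cells against peroxide damage rather than for killing them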;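 note: confirmatory concentration-response retest of ultra-high-throughput screening hits for modulation of myocardial damage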
- experimental.details: cells
- Type: functional, cell-based
- setup.conditions: Rattus norvegicus, H9c2, Myocardium
Activity calls are given as the source filed them.
Please reply with one of these outcomes: 1 (yes) for active, 0 (no) for inactive

As a guide, the following entries are already answered.
>>> df
                              sample_smiles  category
0  CC(C)NC(=O)COC(=O)Cn1[nH]c(=O)c2ccccc2c1=O   1 (yes)
1  COc1ccc(OC)c(/C=N/NC(=O)c2cc3c(OC)c(OC)ccc3[nH]2)c1    0 (no)
2  COc1ccc(C(=O)Nc2nc(-c3ccccn3)cs2)cc1S(=O)(=O)N1CCOCC1   1 (yes)

Please find the next compound below.
In: Outcome logged for "Cc1c(/C=N/NC(=O)c2ccc(O)cc2)c2ccccn2c1C(=O)c1ccc(F)cc1" in this assay:
Out: 0 (no)

----------
- target.under.test: Serine/threonine-protein kinase pim-1 (Homo sapiens, UniProt P11309)
- Type: functional
Active and inactive are the calls of the source.
Please reply with one of these outcomes: Y for active, N for inactive

As a guide, the following entries are already answered.
                                   molecule                         target_under_test  category
0    COc1ccc(C2=NNc3cccc4c(OC)ccc2c34)cc1OC  Serine/threonine-protein kinase pim-1 (Homo sapiens, UniProt P11309)         N
1  O=c1cc(C(F)(F)F)c2c(-c3cccc(C(F)(F)F)c3)n[nH]c2[nH]1  Serine/threonine-protein kinase pim-1 (Homo sapiens, UniProt P11309)         Y
2  CN1CCC(c2c(O)cc(O)c3c(=O)cc(-c4ccccc4Cl)oc23)C(O)C1 (centres undefined)  Serine/threonine-protein kinase pim-1 (Homo sapiens, UniProt P11309)         Y

Please find the next molecule below.
In: Outcome logged for "Cc1ccc(C)c(NC(=O)c2cc(-c3ccco3)nc3ccccc23)c1" in this assay:
Out: Y

----------
- target.under.test: Peroxisome proliferator-activated receptor gamma/Nuclear receptor coactivator 2 (Homo sapiens, UniProt P37231);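 note: agonist potency for raising coactivator recruitment to the receptor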
- Sequence (P37231 whole entry): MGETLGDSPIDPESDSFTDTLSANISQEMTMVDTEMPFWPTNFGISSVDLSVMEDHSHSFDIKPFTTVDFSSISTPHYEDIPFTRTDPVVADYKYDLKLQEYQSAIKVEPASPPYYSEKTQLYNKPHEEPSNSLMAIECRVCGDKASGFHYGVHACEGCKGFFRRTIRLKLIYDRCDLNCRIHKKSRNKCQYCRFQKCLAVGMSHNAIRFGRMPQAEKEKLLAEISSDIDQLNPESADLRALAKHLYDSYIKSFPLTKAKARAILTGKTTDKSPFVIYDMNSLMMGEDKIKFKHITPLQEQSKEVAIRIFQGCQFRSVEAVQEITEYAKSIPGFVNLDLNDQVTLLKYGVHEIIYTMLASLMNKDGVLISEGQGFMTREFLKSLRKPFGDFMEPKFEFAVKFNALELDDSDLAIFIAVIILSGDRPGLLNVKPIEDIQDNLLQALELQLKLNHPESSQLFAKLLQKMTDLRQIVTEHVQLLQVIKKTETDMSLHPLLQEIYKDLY
- Sequence (Q15596 whole entry, further chain): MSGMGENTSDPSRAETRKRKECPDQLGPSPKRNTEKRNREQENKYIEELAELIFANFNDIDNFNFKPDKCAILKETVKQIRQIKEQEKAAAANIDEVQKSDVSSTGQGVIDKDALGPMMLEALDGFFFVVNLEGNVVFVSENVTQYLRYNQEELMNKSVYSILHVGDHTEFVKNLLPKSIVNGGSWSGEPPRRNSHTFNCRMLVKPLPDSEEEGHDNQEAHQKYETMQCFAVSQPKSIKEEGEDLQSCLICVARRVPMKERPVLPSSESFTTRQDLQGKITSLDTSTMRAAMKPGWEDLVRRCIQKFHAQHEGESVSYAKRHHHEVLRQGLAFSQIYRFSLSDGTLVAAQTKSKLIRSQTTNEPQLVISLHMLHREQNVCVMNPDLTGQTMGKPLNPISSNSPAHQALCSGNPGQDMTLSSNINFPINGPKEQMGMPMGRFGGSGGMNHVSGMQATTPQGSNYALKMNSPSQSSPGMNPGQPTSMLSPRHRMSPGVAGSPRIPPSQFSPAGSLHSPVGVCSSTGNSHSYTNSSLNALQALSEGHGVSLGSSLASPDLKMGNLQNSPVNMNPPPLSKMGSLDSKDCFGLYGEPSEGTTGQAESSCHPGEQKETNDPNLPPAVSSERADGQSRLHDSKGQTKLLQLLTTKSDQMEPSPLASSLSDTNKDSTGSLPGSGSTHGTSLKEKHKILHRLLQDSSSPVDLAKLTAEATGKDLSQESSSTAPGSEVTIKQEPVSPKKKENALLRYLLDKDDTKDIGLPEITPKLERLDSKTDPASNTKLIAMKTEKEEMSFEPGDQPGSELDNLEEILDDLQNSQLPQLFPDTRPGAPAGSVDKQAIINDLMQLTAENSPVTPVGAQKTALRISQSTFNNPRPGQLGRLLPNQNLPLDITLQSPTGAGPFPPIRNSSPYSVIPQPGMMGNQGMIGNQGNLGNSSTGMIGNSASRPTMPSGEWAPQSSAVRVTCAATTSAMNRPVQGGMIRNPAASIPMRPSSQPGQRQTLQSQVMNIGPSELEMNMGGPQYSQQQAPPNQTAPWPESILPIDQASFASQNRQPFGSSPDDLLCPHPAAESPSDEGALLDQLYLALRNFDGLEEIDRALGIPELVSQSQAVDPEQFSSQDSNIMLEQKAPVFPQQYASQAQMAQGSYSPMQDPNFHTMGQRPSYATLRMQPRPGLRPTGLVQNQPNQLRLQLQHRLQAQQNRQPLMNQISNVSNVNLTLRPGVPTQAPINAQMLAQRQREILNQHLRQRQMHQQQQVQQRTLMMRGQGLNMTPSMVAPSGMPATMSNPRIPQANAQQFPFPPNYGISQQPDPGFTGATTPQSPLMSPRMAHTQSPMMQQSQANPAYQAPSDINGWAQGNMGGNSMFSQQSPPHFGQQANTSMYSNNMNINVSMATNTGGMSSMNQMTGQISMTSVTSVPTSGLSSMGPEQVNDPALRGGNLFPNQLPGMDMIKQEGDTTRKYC
- Type: functional
property: EC50

Take a look at these entries with their results.
>>> df
                              sample_smiles          measured_value
0          CC(=O)CCc1ccc(OC(=O)c2cccnc2)cc1  > 79.4 µM (not active)
1  COc1ccc(C(=O)Nc2cc(C)c3c(=O)oc4ccccc4c3n2)cc1    82.8 µM (not active)
2          O=C(Nc1cnccn1)c1cccc(C(F)(F)F)c1  > 79.4 µM (not active)
3  FC(F)(F)c1nnc2c(Sc3ccc(Cl)cc3)nc3ccccc3n12    21.7 µM (not active)

In: For the molecule "Cc1cccc2cc(CN(Cc3ccc4c(c3)OCO4)Cc3nnnn3C3CCCC3)c(=O)[nH]c12" , what EC50 is on record?
Out: > 79.4 µM (not active)

----------
Hi! I'm sharing some AC50 results obtained with Cytochrome P450 1A2 (Homo sapiens, UniProt P05177).

                                   molecule  property          measured_value
0  CN(C)c1ncc2nc(-c3cccs3)c(=O)n(CCc3ccccc3)c2n1      AC50  5.01 µM (inconclusive)

In: Form: Entry = "Cc1ccccc1Cn1c(Cc2ccccc2)nc2ccccc21" | System = Cytochrome P450 1A2 (Homo sapiens, UniProt P05177) | AC50 = ____
Out: 17.8 µM (inconclusive)

In: Form: Entry = CC(C)CC(C(=O)OCC(=O)Nc1ncc(Cl)cc1Cl)N1C(=O)c2ccccc2C1=O (stereo not drawn) | System = Cytochrome P450 1A2 (Homo sapiens, UniProt P05177) | AC50 = ____;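 note: PubChem cytochrome P450 panel assay, CYP1A2 panel member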
Out: 11.2 µM (inconclusive)

----------
Here the recorded IC50 is given for each entry.
- target.under.test: Calpain-2 catalytic subunit (Sus scrofa)
- Sequence (P43367 whole entry): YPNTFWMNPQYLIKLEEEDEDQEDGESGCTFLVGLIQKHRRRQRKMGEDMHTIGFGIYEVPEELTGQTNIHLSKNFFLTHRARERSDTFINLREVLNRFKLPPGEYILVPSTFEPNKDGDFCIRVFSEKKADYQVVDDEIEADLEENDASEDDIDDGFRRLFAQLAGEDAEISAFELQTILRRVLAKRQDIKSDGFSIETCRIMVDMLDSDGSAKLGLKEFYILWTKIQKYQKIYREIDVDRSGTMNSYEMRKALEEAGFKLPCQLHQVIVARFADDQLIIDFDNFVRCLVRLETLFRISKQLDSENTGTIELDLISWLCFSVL
- experimental.details: m-calpain protease blockers, concentration series – biochemical, fluorogenic peptide substrate, dose response (AID 1420)
- Type: functional

Take a look at these entries with their results.
                                   compound        measured_value
0        C=CCNC(=S)N/N=C/c1ccc(C(C)(C)C)cc1  10.9 µM (not active)
1       c1ccc(-c2cc(N3CCCCC3)c3ccccc3n2)cc1  3.92 µM (not active)
2  Cc1ccc(C(C(=O)NC2CCCC2)N(C(=O)Cc2cccs2)c2ccc(C)c(C)c2)o1 (centres undefined)  10.9 µM (not active)

Turning to the following compound.
In: Form: Entry = "CC(C)N(C(=O)c1sc2cc([N+](=O)[O-])ccc2c1Cl)C(C)C" | System = Calpain-2 catalytic subunit (Sus scrofa) | IC50 = ____
Out: 1.98 µM (not active)

----------
- target.under.test: UniProtKB P08684
Here the recorded AC50 is given for each entry.

Take a look at these entries with their results.
>>> print(df.to_string())
                                   compound            measured_value
0  CSc1nc(C)cc(SC(C(C)=O)C(=O)Nc2ccccc2)n1 (centres undefined)    14.1 µM (inconclusive)
1  Fc1ccc(C2CC(c3ccco3)=NN2c2ccccc2)cc1 (centres undefined)  0.0251 µM (inconclusive)
2          COc1ccc(NC(=O)NCc2cccn2C)c(OC)c1    22.4 µM (inconclusive)
3       COC(=O)c1cccc(NC(=O)CCCOc2ccccc2)c1    12.6 µM (inconclusive)
4  O=c1c(-c2cccc(Cl)c2)nc2cncnc2n1Cc1ccccc1Cl    12.6 µM (inconclusive)

In: For the compound "COc1ccc(-c2cc(C(=O)Nc3cc(OC)c(OC)c(OC)c3)no2)cc1OC" , what AC50 is on record?
Out: 10 µM (inconclusive)

In: For the compound "N=C1/C(=C/c2cccs2)C(=O)N=C2SN=C(SCc3ccccc3)N12" , what AC50 is on record?
Out: 14.1 µM (inconclusive)

In: For the compound "C[C@H](CN(C)C)C(C#N)(c1ccccc1)c1ccccc1" , what AC50 is on record?
Out: 3.98 µM (inconclusive)

In: For the compound "COCC(=O)N1CCC2(CCCN(c3ccccc3)C2)CC1" , what AC50 is on record?
Out: 7.94 µM (inconclusive)
